target-under-test: Enzyme (kinases of Table 30) (Homo sapiens)
Sequence (Q9P1W9 whole entry): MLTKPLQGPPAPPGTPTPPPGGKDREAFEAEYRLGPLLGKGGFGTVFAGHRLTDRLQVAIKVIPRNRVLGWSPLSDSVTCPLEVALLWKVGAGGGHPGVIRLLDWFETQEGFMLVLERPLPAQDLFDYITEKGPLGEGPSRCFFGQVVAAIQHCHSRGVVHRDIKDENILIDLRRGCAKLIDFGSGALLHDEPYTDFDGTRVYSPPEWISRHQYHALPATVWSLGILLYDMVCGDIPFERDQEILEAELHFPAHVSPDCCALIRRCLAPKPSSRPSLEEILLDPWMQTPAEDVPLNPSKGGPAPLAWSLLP
experiment: IC50 of Compound (nM) (ATP present at Km of enzyme), Table 30
Type: biochemical
cond: Pim-2(h), ATP present at Km of enzyme; read-out: IC50 of Compound, Pim-2(h)

entry-smiles: O=C1NC(=O)/C(=C/c2ccnc(N[C@H]3CCCNC3)n2)S1
scale-unit: nM
IC50: 18

entry-smiles: O=C1NC(=O)/C(=C/c2ccnc(N3CCC(CNCc4ccncc4)CC3)n2)S1
scale-unit: nM
IC50: 87

entry-smiles: CCCCN(C)c1nccc(/C=C2\SC(=O)NC2=O)n1
scale-unit: nM
IC50: 80

entry-smiles: O=C1NC(=O)/C(=C/c2ccnc(N3CCC(CNCc4cccc(-c5cccs5)n4)CC3)n2)S1
scale-unit: nM
IC50: 199

entry-smiles: O=C1NC(=O)/C(=C/c2ccnc(N3CCC(CNCc4ccc5cc(F)ccc5n4)CC3)n2)S1
scale-unit: nM
IC50: 23

entry-smiles: O=C1NC(=O)/C(=C/c2ccnc(N3CCC(CNCc4cccc(-c5ccc(F)cc5)n4)CC3)n2)S1
scale-unit: nM
IC50: 217

entry-smiles: O=C1NC(=O)/C(=C/c2ccnc(N3CCC(CO)CC3)n2)S1
scale-unit: nM
IC50: 136

entry-smiles: O=C1NC(=O)/C(=C/c2ccnc(N3CCC(CCO)CC3)n2)S1
scale-unit: nM
IC50: 127

entry-smiles: Nc1cccc2c1CCN(c1nccc(/C=C3\SC(=O)NC3=O)n1)C2
scale-unit: nM
IC50: 225
